Origin of measurements: a melting point compilation (Tetko et al.; mined from patent text by program, amines drawn as free bases though some values may be those of a salt)

Provide the recorded melting point for the entries that follow.

1) COc1cc2cc(C=Cc3ccccc3Cl)[nH]c2cc1OCc1ccccc1    192 to 194 °C
2) O=[N+]([O-])c1cc(Br)cc(Br)c1    102 to 104 °C
3) CCC(Oc1ccccc1C(C)=O)C(=O)OC1CC(O)C=C2C=CC(C)C(CCC3CC(O)CC(=O)O3)C21 (mixture of isomers)    148 to 150 °C
4) Cn1nnnc1-c1cn(C)c2ccc(F)cc2c1=O    260 to 261 °C

Please state melting point for every compound in the list that follows.
1. Cc1nc2cnccc2n1-c1ccc(O)cc1
2. O=C(Cc1ccc(Cl)c(Cl)c1)N1CCc2occc2C1CO (centres undefined)
3. CCCCOCCOc1ccc(-c2ccc(N3CCCCCC3)c(C=C(C)C(=O)OC)c2)cc1
4. CCOC(=O)c1cn(Cc2ccccc2)nc1OCc1ccc(OCc2nc(-c3ccco3)oc2C)c(-c2ccccc2)c1
5. CC/C=C/CONC(=O)c1nc(-c2ccc(Cl)c(OC)c2F)cc(N)c1Cl
6. ClCCN1C2C=C(c3ccc4ccccc4c3)CC1CC2 (centres undefined)

Ans:
1: 265 to 267 °C; 2: 155 to 156 °C; 3: 86 to 89 °C; 4: 134 to 135 °C; 5: 145 to 147 °C; 6: 122 to 123 °C

Need melting point for each of these compounds.
1. Nc1ccc(-c2cnns2)cc1
2. O=C(NCC(c1ccccc1)c1ccccc1)C1Cc2ccccc2N1S(=O)(=O)c1ccc(-c2ccc(F)cc2)cc1 (centres undefined)
3. Cc1cc(NC(=O)c2ccccc2O)cc(C)c1O
4. O=NCNC1=Nc2ccccc2N(c2ccccc2)C(=O)C1
5. CCOC(=O)C(C)(O)c1ccncc1F (centres undefined)
6. CC(=O)OC1CSC(Oc2c(C)ccnc2-c2cccnc2)C(OC(C)=O)C1OC(C)=O (centres undefined)

Ans:
["126 to 128 °C", "80 to 82 °C", "142 to 145 °C", "139 to 140 °C", "56 to 60 °C", "143 °C"]

I need melting point for every entry listed below, if you could help.
1. C[C@H](Cn1ncnn1)n1cnc2cc3c(=O)n(C4CC4)cnc3cc2c1=O
2. CCS(=O)(=O)Oc1ccccc1S(N)(=O)=O
3. CCOC(=O)C(=O)Nc1cccc(N(C)C)c1C(N)=O
4. NS(=O)(=O)C1CCCCC1=O (centres undefined)
5. COc1ccc2c(c1)c(CCNC(C)=O)cn2S(=O)(=O)c1ccc(C)cc1
6. O=C(c1ccn2c1CSC2c1cccnc1)c1c[nH]c2cc(-c3ccc(F)cc3)ccc12 (centres undefined)

Ans:
1. 221 to 223 °C
2. 90 to 92.5 °C
3. 133 to 135 °C
4. 118 to 119 °C
5. 132 to 133 °C
6. 248 to 252 °C
